These data points were gathered from PubChem BioAssay (NCI).

System: MDA-MB-468 breast
MEASUREMENT_NOTES: NCI tumour cell line growth inhibition, 48 h; in the data active = GI50 below about 0.43 µM; inactive = the rest
Outcome codes: t for active, f for inactive

MOLECULE	CLASS
NC1=NC(=O)/C(=C/c2ccc3ncccc3c2)S1	f
COc1ccc(-c2ccnc(SCc3cc4cc(OC)ccc4[nH]c3=O)n2)cc1	f
NC(Cc1c[nH]c2ccc(F)cc12)C(=O)O (centres undefined)	f
COc1ccc(C(=O)O[C@H]2[C@H](O[C@H]3[C@@H](O)COC(O[C@H]4C[C@H]5[C@@H]6CC=C7C[C@@H](O)CC[C@]7(C)[C@H]6CC[C@]5(C)[C@H]4[C@H](C)C(=O)CCC(C)C)[C@@H]3OC(C)=O)OC[C@@H](O)[C@@H]2O)c(C)c1 (some centres undefined)	t

---

Measured TGI values are reported for all entries that follow.
Tested on: MDA-MB-468 breast
MEASUREMENT_NOTES: NCI tumour cell line growth inhibition, 48 h

COMPOUND	MEASUREMENT_UNITS	COMPARISON_OPERATOR	TGI
CCN(CC)c1ccc2nc3c4ccccc4c(=O)cc-3n(-c3ccccc3)c2c1	µM	=	1.98
CC[C@]1(O)CC2CN(CCc3c([nH]c4ccccc34)[C@@](C(=O)OC)(c3cc4c(cc3OC)N(C=O)[C@H]3[C@@](O)(C(=O)OC)[C@H](OC(C)=O)[C@]5(CC)C=CCN6CC[C@]43[C@@H]65)C2)C1 (some centres undefined)	µM	>	28.5
Clc1ccc2ncc(-c3cccc(NC4CNC4)n3)n2c1	µM	=	20.5
COc1ccc(-c2nn(-c3ccc(NC(=O)c4cc(Cl)cc(Cl)c4)cc3)cc2-c2ccncc2)cc1Cl	µM	>	100
COc1ccc2nc3cc([N+](=O)[O-])ccc3c(NNc3ccccc3)c2c1	µM	=	5.37
COc1cccc(C2=C(c3cn(C)c4cc(F)ccc34)C(=O)NC2=O)c1	µM	>	25
COc1ccc(-c2ccnc(SCc3cc4cc(OC)ccc4[nH]c3=O)n2)cc1	µM	=	6.16
COc1ccccc1/C=C/C1=C(C)CCC(c2ccccc2OC)C1C (centres undefined)	µM	>	100
O=c1c2ccccc2nc(-c2ccccc2Cl)n1-c1nnc(C(F)(F)F)s1	µM	=	7.81

---

Tested on: MDA-MB-468 breast
MEASUREMENT_NOTES: NCI tumour cell line growth inhibition, 48 h; in the data active = GI50 below about 0.43 µM; inactive = the rest
Outcome codes: True for active, False for inactive

SAMPLE_SMILES	CLASS
Clc1ccc2ncc(-c3cccc(NC4CNC4)n3)n2c1	False
CCN(CC)c1ccc2nc3c4ccccc4c(=O)cc-3n(-c3ccccc3)c2c1	True
Cc1ccc(-c2nc(N3CCNCC3)c3oc(-c4ccccc4)nc3n2)cc1	False
O=C(Cc1csc2nc(-c3ccc(Cl)cc3)cn12)N/N=C/c1ccccc1O	False
c1ccc(-c2n(Cc3ccc4ccccc4c3)cc[n+]2Cc2ccc3ccccc3c2)cc1	True
O=C(Nc1cccc(-n2cc(-c3ccncc3)c(-c3ccc(O)c(Cl)c3)n2)c1)c1cc(C(F)(F)F)cc(C(F)(F)F)c1	False
COc1ccc2nc3cc([N+](=O)[O-])ccc3c(NNc3ccccc3)c2c1	False
NC(=O)CC1(O)C=C(Br)C(=O)C(Br)=C1	False
O=C1c2ccccc2C(=O)c2c1ccc1c(=O)n(-c3ccccc3C(F)(F)F)nnc21	False
O=c1c2ccccc2nc(-c2ccccc2Cl)n1-c1nnc(C(F)(F)F)s1	False
